Biological target: CCR4 (Homo sapiens, UniProt P51679)
Construct: host or cells: CHO-K1
Sequence (P51679 1-360): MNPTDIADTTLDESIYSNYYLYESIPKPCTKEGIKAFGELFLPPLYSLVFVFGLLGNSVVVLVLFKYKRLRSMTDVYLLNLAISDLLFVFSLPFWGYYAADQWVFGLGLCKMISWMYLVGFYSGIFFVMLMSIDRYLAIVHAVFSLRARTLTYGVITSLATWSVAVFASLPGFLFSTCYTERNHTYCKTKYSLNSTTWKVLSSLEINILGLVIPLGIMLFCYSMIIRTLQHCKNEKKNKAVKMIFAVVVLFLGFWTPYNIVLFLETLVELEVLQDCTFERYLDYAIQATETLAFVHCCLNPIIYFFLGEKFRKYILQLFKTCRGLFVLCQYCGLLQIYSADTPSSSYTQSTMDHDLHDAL
Assay: PathHunter eXpress CCR4 CHO-K1 β-Arrestin GPCR Assay, antagonist format with CCL22
Assay type: cell-based
Conditions: 1 nM CCL22, 16.7 uM
Recorded Raw Data for the following sequences
quantity: Raw Data

| sequence | quantity | measured-number |
| --- | --- | --- |
| ACQTLCNTAEDIRCA [24-16-00-N001, bicyclic peptide ligand, TBMB scaffold, from CCR4 cell-based selection] | Raw Data | 150731 |
| ACPLMSSVNCTAGCA [24-13-00-N001, bicyclic peptide ligand, TBMB scaffold, from CCR4 cell-based selection] | Raw Data | 156536 |
| ACLSCARHGNQCA [24-12-00-N001, bicyclic peptide ligand, TATA scaffold, from CCR4 cell-based selection] | Raw Data | 123432 |
| ACQLTCLPPPRQPGCA [24-15-00-N001, bicyclic peptide ligand, TATA scaffold, from CCR4 cell-based selection] | Raw Data | 47343 |
